B1: EPB41L3 (parent)
chain: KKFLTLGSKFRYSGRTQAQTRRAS

# Variants of: B1
# Test method notes: protein stability index of a GFP-peptide fusion (GPS, HEK-293T) (PSI 1-6); higher = more stable;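 note: lentivirally expressed fusions sorted by FACS into six bins by GFP to DsRed ratio, PSI derived from sequencing read proportions per bin multiplied by bin number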
# Condition: c terminus: a fixed tail appended
What protein stability index was measured for each of the following?

[[record]]
mutant_designation = "S24D"
value_type = "protein stability index"
result = 3.31

[[record]]
mutant_designation = "S8D"
value_type = "protein stability index"
result = 2.86

[[record]]
mutant_designation = "F3M"
value_type = "protein stability index"
result = 3.56

[[record]]
mutant_designation = "R15D"
value_type = "protein stability index"
result = 3.81

[[record]]
mutant_designation = "S24C"
value_type = "protein stability index"
result = 2.1

[[record]]
mutant_designation = "S24F"
value_type = "protein stability index"
result = 2.36

[[record]]
mutant_designation = "R22K"
value_type = "protein stability index"
result = 3.1

[[record]]
mutant_designation = "F10H"
value_type = "protein stability index"
result = 4.22

[[record]]
mutant_designation = "F3A"
value_type = "protein stability index"
result = 3.62

[[record]]
mutant_designation = "S13C"
value_type = "protein stability index"
result = 1.41


// each variant listed below needs its protein stability index
1. R11D
2. S24T
3. R21N
4. G7C
5. R15F

1: 4.24; 2: 3.46; 3: 2.1; 4: 2.38; 5: 2.19
